Source listed as ChEMBL document CHEMBL5131453.

- system-tested: UniProt P11712
- Sequence (P11712 whole entry): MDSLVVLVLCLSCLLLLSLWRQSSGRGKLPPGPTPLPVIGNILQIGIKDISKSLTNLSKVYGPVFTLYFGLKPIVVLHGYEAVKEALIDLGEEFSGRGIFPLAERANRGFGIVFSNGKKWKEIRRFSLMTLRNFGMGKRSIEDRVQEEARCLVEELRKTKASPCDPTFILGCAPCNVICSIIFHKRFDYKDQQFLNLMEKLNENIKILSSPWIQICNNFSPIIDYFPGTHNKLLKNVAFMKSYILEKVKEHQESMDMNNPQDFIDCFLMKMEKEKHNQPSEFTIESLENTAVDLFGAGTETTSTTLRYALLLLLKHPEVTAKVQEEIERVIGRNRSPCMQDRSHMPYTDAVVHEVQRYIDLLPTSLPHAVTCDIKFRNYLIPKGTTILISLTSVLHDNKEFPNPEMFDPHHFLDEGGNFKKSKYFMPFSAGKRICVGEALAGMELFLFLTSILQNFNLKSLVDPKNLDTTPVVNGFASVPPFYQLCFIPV
- run-description: Inhibition of CYP2C9 (unknown origin) assessed as residual activity at 20 uM by enzyme assay relative to control
- Type: ADME
- conditions-used: read-out: Activity
quantity: activity at 20 µM
The number alone won't do; follow it with the unit.

Lookup: Which activity at 20 µM value is on record for Cc1ccc(CC(=O)O)cc1OCCC1CCN(c2nc3ccc(Cl)cc3s2)CC1 ?
Found: 58%

* * *

- system-tested: Peroxisome proliferator-activated receptor delta (Mus musculus) (UniProt P35396)
- Sequence (whole entry): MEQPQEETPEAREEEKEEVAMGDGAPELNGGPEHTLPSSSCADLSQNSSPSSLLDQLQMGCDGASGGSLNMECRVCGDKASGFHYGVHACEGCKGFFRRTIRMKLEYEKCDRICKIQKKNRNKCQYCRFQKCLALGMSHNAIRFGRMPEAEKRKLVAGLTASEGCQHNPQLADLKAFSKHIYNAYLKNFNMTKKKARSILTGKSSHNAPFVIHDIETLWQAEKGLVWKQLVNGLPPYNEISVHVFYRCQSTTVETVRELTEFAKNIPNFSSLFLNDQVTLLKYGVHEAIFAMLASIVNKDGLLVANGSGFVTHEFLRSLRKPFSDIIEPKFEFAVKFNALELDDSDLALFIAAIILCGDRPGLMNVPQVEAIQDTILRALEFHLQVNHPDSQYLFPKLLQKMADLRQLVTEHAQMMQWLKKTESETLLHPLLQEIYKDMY
- run-description: Transactivation of Gal4-fused mouse PPARdelta expressed in CHO cells co expressing pG5-Luc reporter at 1 uM
- Type: cell-based
- conditions-used: filed as agonist
quantity: fold change (FC)
Provide a numeric answer; units are not to be included.

Lookup: fold change (FC) lookup needed for O=C(O)Cc1cccc(OCC2CCN(c3nc4ccc(Cl)cc4s3)CC2)c1 , thanks.
Found: 7

Lookup: Next entry: O=C(O)c1cccc(OCCC2CCN(c3nc4ccc(Cl)cc4s3)CC2)c1
Found: 1.4

Lookup: Follow-up entry: O=C(O)CCC(=O)OCCC1CCN(c2nc3ccc(Cl)cc3s2)CC1
Found: 2

Lookup: Another compound to check: Cc1cc(SCc2sc(-c3ccc(C(F)(F)F)cc3)nc2C)ccc1OCC(=O)O
Found: 30.4

Lookup: Next: O=C(O)CCc1cccc(OCCC2CCN(c3nc4ccc(Cl)cc4s3)CC2)c1
Found: 2.2

* * *

- system-tested: Peroxisome proliferator-activated receptor delta (Homo sapiens, UniProt Q03181)
- Sequence (Q03181 whole entry): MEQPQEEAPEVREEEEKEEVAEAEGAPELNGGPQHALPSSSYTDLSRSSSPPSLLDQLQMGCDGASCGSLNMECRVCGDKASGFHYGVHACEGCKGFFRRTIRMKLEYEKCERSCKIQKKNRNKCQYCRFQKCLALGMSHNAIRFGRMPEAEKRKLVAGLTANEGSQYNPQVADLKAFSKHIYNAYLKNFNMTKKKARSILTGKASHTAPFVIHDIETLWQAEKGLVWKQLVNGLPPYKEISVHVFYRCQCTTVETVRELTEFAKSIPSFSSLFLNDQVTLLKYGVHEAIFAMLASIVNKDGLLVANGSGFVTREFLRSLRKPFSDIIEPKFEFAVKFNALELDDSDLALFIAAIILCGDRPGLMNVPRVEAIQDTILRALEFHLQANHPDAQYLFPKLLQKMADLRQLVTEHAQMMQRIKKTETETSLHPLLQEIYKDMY
- run-description: Transactivation of Gal4-fused human PPARdelta expressed in CHO cells co expressing pG5-Luc reporter
pEC50: −log10 of the molar value.
Please enter True where pEC50 is greater than or equal to 7, and False where it is lower.

Lookup: Check if pEC50 >= 7 (inclusive). Item: O=C(O)Cc1cccc(OCCC2CCN(c3nc4ccc(Cl)cc4s3)CC2)c1
Found: False

Lookup: Next molecule up: Cc1ccc(CC(=O)O)cc1OCCC1CCN(c2nc3ccc(Cl)cc3s2)CC1
Found: True
